System: T1, human ferroportin (SLC40A1) fused in frame with GFP, stably expressed in HEK293 cells (human, UniProt Q9NP59 1-571)
T1 sequence (looked up): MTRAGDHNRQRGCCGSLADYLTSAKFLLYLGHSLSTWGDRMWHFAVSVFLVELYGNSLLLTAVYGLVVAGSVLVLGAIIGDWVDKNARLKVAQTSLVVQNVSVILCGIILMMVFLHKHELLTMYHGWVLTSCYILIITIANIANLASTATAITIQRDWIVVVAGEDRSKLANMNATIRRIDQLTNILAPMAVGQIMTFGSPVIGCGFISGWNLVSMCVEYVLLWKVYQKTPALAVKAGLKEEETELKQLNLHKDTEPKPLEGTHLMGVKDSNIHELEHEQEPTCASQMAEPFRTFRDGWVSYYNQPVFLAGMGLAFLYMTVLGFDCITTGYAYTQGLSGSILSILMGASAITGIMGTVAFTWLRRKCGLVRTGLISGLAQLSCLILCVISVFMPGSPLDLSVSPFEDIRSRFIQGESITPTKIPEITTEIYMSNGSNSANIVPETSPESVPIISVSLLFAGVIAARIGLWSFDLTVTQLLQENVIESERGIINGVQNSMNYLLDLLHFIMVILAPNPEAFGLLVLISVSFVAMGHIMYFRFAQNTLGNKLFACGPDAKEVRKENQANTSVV
Test summary: cell-based or functional assay
Bridge positions count the residues as written; N and C are the ends. * marks the point of attachment. Isovaleryl = CC(C)CC(=O)*
Could you please report measured Potency EC50 (nM), ferroportin-GFP internalization/degradation for the items listed next?

In plain terms, Isovaleryl-SKHAPCIKFEPRSKGWECK-NH2 (disulfide 6-18 (inferred)) [Isovaleric acid-SKHAPCIKFEPRSKGWECK-NH2] has a documented Potency EC50 (nM), ferroportin-GFP internalization/degradation of > 10000 nM

In plain terms, H-DTHFPCIFGPRSKGWVC-NH2 (disulfide 6-17 (inferred)) [Hy-DTHFPCIFGPRSKGWVC-NH2] has a documented Potency EC50 (nM), ferroportin-GFP internalization/degradation of > 1000 nM

In plain terms, H-DTHFPIICI-NH2 [Hy-DTHFPIICI-NH2] has a documented Potency EC50 (nM), ferroportin-GFP internalization/degradation of > 10000 nM

In plain terms, H-DTHCPIAIF-NH2 [Hy-DTHCPIAIF-NH2] has a documented Potency EC50 (nM), ferroportin-GFP internalization/degradation of > 10000 nM

In plain terms, Isovaleryl-DTHFGCIKFEPRSKEWVCK-NH2 (not fully specified (bridges); cysteine pairing not given here) [Isovaleric acid-DTHFGCIKFEPRSKEWVCK-NH2] has a documented Potency EC50 (nM), ferroportin-GFP internalization/degradation of > 1000 nM

In plain terms, H-ATHFPCIIF-NH2 [Hy-ATHFPCIIF-NH2] has a documented Potency EC50 (nM), ferroportin-GFP internalization/degradation of > 1000 nM
